# System: THP-1 cells
# run description: Cell viability assay (MTT)
# Format: cell-based
# condition context: compound 5 μM alone, 18 h, normalized to DMSO as 100%
quantity: MTT Compound alone % Viability (%)
// units = %; emit number, no label

stdin: Answer with the recorded MTT Compound alone % Viability for the molecule listed here: CCCc1csc(NC(=O)c2ccc(S(=O)(=O)N3CCCCC3)cc2)n1 [Compound 12i]
stdout: 122.66

stdin: Answer with the recorded MTT Compound alone % Viability for the molecule listed here: Cc1ccc(C)c(-c2csc(NC(=O)c3ccc(S(=O)(=O)N4CCCCC4)cn3)n2)c1 [Compound 46a]
stdout: 94.46

stdin: Answer with the recorded MTT Compound alone % Viability for the molecule listed here: Cc1ccc(C)c(-c2csc(NC(=O)c3ccc(S(=O)(=O)N4CCCCC4)cc3)n2)c1
stdout: 102.81

stdin: Answer with the recorded MTT Compound alone % Viability for the molecule listed here: Cc1ccc(C)c(-c2nnc(NC(=O)c3ccc(S(=O)(=O)N4CCCCC4)cc3)s2)c1 [Compound 18f]
stdout: 89.80

stdin: Answer with the recorded MTT Compound alone % Viability for the molecule listed here: CC(C)(C)c1csc(NC(=O)c2ccc(S(=O)(=O)N3CCCCC3)cc2)n1 [Compound 12k]
stdout: 127.74

stdin: Answer with the recorded MTT Compound alone % Viability for the molecule listed here: C#CCN(CCC)S(=O)(=O)c1ccc(C(=O)Nc2nc(-c3cc(C)ccc3C)cs2)cc1 [Compound 72c]
stdout: 84.00

stdin: Answer with the recorded MTT Compound alone % Viability for the molecule listed here: Cc1ccc(C)c(-c2csc(NC(=O)c3ccc(S(=O)(=O)N4CCN(C(=O)OC(C)(C)C)CC4)cc3)n2)c1 [Compound 58f]
stdout: 81.23

stdin: Answer with the recorded MTT Compound alone % Viability for the molecule listed here: CCCN1CCN(S(=O)(=O)c2ccc(C(=O)Nc3nc(-c4cc(C)ccc4C)cs3)cc2)CC1 [Compound 58k]
stdout: 50.85

stdin: Answer with the recorded MTT Compound alone % Viability for the molecule listed here: O=C(Nc1nc(-c2cccc3ccccc23)cs1)c1ccc(S(=O)(=O)N2CCCCC2)cc1 [Compound 12q]
stdout: 92.71

stdin: Answer with the recorded MTT Compound alone % Viability for the molecule listed here: CCC#Cc1sc(NC(=O)c2ccc(S(=O)(=O)N3CCCCC3)cc2)nc1-c1cc(C)ccc1C [Compound 18p]
stdout: 120.17

stdin: Answer with the recorded MTT Compound alone % Viability for the molecule listed here: Cc1ccc(C)c(-c2nc(NC(=O)c3ccc(S(=O)(=O)N4CCCCC4)cc3)sc2N2CCCCC2)c1 [Compound 18h]
stdout: 89.45

stdin: Answer with the recorded MTT Compound alone % Viability for the molecule listed here: Cc1ccc(C)c(-c2csc(NC(=O)c3ccc(S(=O)(=O)N4CCNCC4)cc3)n2)c1 [Compound 58i]
stdout: 75.86

stdin: Answer with the recorded MTT Compound alone % Viability for the molecule listed here: Cc1ccc2c(c1)-c1nc(NC(=O)c3ccc(S(=O)(=O)N4CCCCC4)cc3)sc1C2 [Compound 12r]
stdout: 82.46

stdin: Answer with the recorded MTT Compound alone % Viability for the molecule listed here: Cc1ccc(Br)cc1-c1csc(NC(=O)c2ccc(S(=O)(=O)N3CCCCC3)cc2)n1 [Compound 12e]
stdout: 91.50

stdin: Answer with the recorded MTT Compound alone % Viability for the molecule listed here: CCCN(CC)S(=O)(=O)c1ccc(C(=O)Nc2nc(-c3cc(C)ccc3C)cs2)cc1 [Compound 58a]
stdout: 73.63

stdin: Answer with the recorded MTT Compound alone % Viability for the molecule listed here: Cc1ccc(C)c(-c2c[nH]c(NC(=O)c3ccc(S(=O)(=O)N4CCCCC4)cc3)n2)c1 [Compound 18a]
stdout: 50.69

stdin: Answer with the recorded MTT Compound alone % Viability for the molecule listed here: CCCC1CCN(S(=O)(=O)c2ccc(C(=O)Nc3nc(-c4cc(C)ccc4Br)cs3)cc2)CC1
stdout: 98.59

stdin: Answer with the recorded MTT Compound alone % Viability for the molecule listed here: Cc1ccc(C)c(-c2csc(NC(=O)c3ccc(S(=O)(=O)C4CCCCC4)cc3)n2)c1 [Compound 49b]
stdout: 81.81

stdin: Answer with the recorded MTT Compound alone % Viability for the molecule listed here: Cc1ccc(-c2csc(NC(=O)c3ccc(S(=O)(=O)N4CCCCC4)cc3)n2)cc1C [Compound 12n]
stdout: 97.59

stdin: Answer with the recorded MTT Compound alone % Viability for the molecule listed here: Cc1ccc(C)c(-c2csc(NC(=O)c3ccc(C(=O)N4CCCCC4)cc3)n2)c1 [Compound 49c]
stdout: 87.59

stdin: Answer with the recorded MTT Compound alone % Viability for the molecule listed here: C#CC1CCN(S(=O)(=O)c2ccc(C(=O)Nc3nc(-c4cc(N=[N+]=[N-])ccc4C)cs3)cc2)CC1
stdout: 84.53

---

# Test system: NF-κB
# run description: Measurement of NF-κB activation using THP1-Blue NF-κB cells (SEAP)
# Type: cell-based
# condition context: compound 5 μM + LPS, 20 h; two point normalized, compound 1 as 200%, LPS (10 ng/mL) as 100%; read-out: NF-κB SEAP Compound + LPS % Activation
quantity: activity at 5 µM (%)
// units = %; emit number, no label

stdin: Would you please give the reported activity at 5 µM of Cc1ccc(C)c(-c2csc(NC(=O)c3ccc(S(=O)(=O)N4CCCCC4)nc3)n2)c1 [Compound 46b] with NF-κB?
stdout: 115

stdin: Would you please give the reported activity at 5 µM of CCCC#Cc1sc(NC(=O)c2ccc(S(=O)(=O)N3CCC(CCC)CC3)cc2)nc1-c1cc(C)ccc1C with NF-κB?
stdout: 189

stdin: Would you please give the reported activity at 5 µM of Cc1ccc(C)c(-c2csc(NC(=O)c3ccc(S(=O)(=O)N4CCN(C(=O)OC(C)(C)C)CC4)cc3)n2)c1 [Compound 58f] with NF-κB?
stdout: 105

stdin: Would you please give the reported activity at 5 µM of C#CCNS(=O)(=O)c1ccc(C(=O)Nc2nc(-c3cc(C)ccc3C)cs2)cc1 [Compound 72a] with NF-κB?
stdout: 102

---

# Tested on: NF-κB
# run description: cell-based NF-κB FRET assay
# condition context: compound + LPS; two point normalized, compound 1 as 200%, LPS (10 ng/mL) as 100%
quantity: NF-κB FRET Compound + LPS % Activation (%)
// units = %; emit number, no label

stdin: Answer with the recorded NF-κB FRET Compound + LPS % Activation for the molecule listed here: Cc1cccc(-c2csc(NC(=O)c3ccc(S(=O)(=O)N4CCCCC4)cc3)n2)c1 [Compound 12c]
stdout: 78.98

stdin: Answer with the recorded NF-κB FRET Compound + LPS % Activation for the molecule listed here: C#Cc1ccc(C)c(-c2csc(NC(=O)c3ccc(S(=O)(=O)N4CCCCC4)cc3)n2)c1 [Compound 12t]
stdout: 88.20

stdin: Answer with the recorded NF-κB FRET Compound + LPS % Activation for the molecule listed here: C#CCN(CC)S(=O)(=O)c1ccc(C(=O)Nc2nc(-c3cc(C)ccc3C)cs2)cc1 [Compound 72b]
stdout: 129.85

stdin: Answer with the recorded NF-κB FRET Compound + LPS % Activation for the molecule listed here: C#Cc1sc(NC(=O)c2ccc(S(=O)(=O)N3CCCCC3)cc2)nc1-c1cc(C)ccc1C [Compound 18o]
stdout: 101.71

stdin: Answer with the recorded NF-κB FRET Compound + LPS % Activation for the molecule listed here: CCN(CC)c1sc(NC(=O)c2ccc(S(=O)(=O)N3CCCCC3)cc2)nc1-c1cc(C)ccc1C [Compound 18g]
stdout: 92.64

stdin: Answer with the recorded NF-κB FRET Compound + LPS % Activation for the molecule listed here: Cc1cccc(-c2csc(NC(=O)c3ccc(S(=O)(=O)N4CCCCC4)cc3)n2)c1C [Compound 12l]
stdout: 206.60

stdin: Answer with the recorded NF-κB FRET Compound + LPS % Activation for the molecule listed here: C#CC1CCN(S(=O)(=O)c2ccc(C(=O)Nc3nc(-c4cc(C)ccc4C)cs3)cc2)CC1 [Compound 72d]
stdout: 123.22

stdin: Answer with the recorded NF-κB FRET Compound + LPS % Activation for the molecule listed here: Cc1csc(NC(=O)c2ccc(S(=O)(=O)N3CCCCC3)cc2)n1 [Compound 12g]
stdout: 110.48

stdin: Answer with the recorded NF-κB FRET Compound + LPS % Activation for the molecule listed here: CCOC1CCN(S(=O)(=O)c2ccc(C(=O)Nc3nc(-c4cc(C)ccc4C)cs3)cc2)CC1 [Compound 58g]
stdout: 189.46

stdin: Answer with the recorded NF-κB FRET Compound + LPS % Activation for the molecule listed here: Cc1ccc(C)c(-c2ccc(NC(=O)c3ccc(S(=O)(=O)N4CCCCC4)cc3)nc2)c1 [Compound 18c]
stdout: 73.65

stdin: Answer with the recorded NF-κB FRET Compound + LPS % Activation for the molecule listed here: CCCC1CCN(S(=O)(=O)c2ccc(C(=O)Nc3nc(-c4cc(C)ccc4C)cs3)cc2)CC1 [Compound 58h]
stdout: 218.16

stdin: Answer with the recorded NF-κB FRET Compound + LPS % Activation for the molecule listed here: CCCc1csc(NC(=O)c2ccc(S(=O)(=O)N3CCCCC3)cc2)n1 [Compound 12i]
stdout: 112.46

stdin: Answer with the recorded NF-κB FRET Compound + LPS % Activation for the molecule listed here: CCCC#Cc1sc(NC(=O)c2ccc(S(=O)(=O)N3CCCCC3)cc2)nc1-c1cc(C)ccc1Br [Compound 64]
stdout: 196.14

stdin: Answer with the recorded NF-κB FRET Compound + LPS % Activation for the molecule listed here: Cc1ccccc1-c1csc(NC(=O)c2ccc(S(=O)(=O)N3CCCCC3)cc2)n1 [Compound 12b]
stdout: 100.13

stdin: Answer with the recorded NF-κB FRET Compound + LPS % Activation for the molecule listed here: Cc1ccc(C)c(-c2csc(NS(=O)(=O)c3ccc(C(=O)N4CCCCC4)cc3)n2)c1 [Compound 55]
stdout: 70.37

stdin: Answer with the recorded NF-κB FRET Compound + LPS % Activation for the molecule listed here: Cc1ccc(C)c(-c2csc(C(=O)Nc3ccc(S(=O)(=O)N4CCCCC4)cc3)n2)c1 [Compound 34b]
stdout: 134.57
